I'd be grateful if you could share measured pIC50 for these entries.
System: 293T-HRE-GFP-luc cells
Test: Cell-based reporter assay for IC50 determinations (HRE-luciferase, hypoxia)
Details: 6 h, 6 hrs hypoxia (1% O2), luminescence
pIC50: −log10 of the molar value.

Give measured pIC50 for every item shown.
1. CN1CCN(c2cccc(Cn3cc(-c4noc(-c5ccc(S(C)(=O)=O)cc5)n4)ccc3=O)c2)CC1 [Example 186]
2. COCCOc1cccc(Cn2cc(-c3noc(-c4ccc(C(C)(C)CO)cc4)n3)ccc2=O)c1 [Example 70]
3. COCCOc1cccc(Cn2cc(-c3noc(-c4cnc(OCC(C)C)nc4)n3)ccc2=O)c1 [Example 87]
4. CN1CCN(C(=O)c2cccc(Cn3nc(-c4nc(-c5ccc(OC(F)(F)F)cc5)no4)ccc3=O)c2)CC1 [Example 112]
5. COCCOc1cccc(Cn2cc(-c3nnc(-c4ccc(OC(F)F)cc4)o3)ccc2=O)c1 [Example 257]
6. COCCOc1cccc(Cn2cc(-c3noc(-c4ccc(N5CCCS5(=O)=O)cc4)n3)ccc2=O)c1 [Example 66]

["> 7.00", "> 7.00", "> 7.00", "6.00 to 7.00", "6.00 to 7.00", "6.00 to 7.00"]

Give measured pIC50 for every item shown.
1. O=c1ccc(-c2nc(-c3ccc(OC(F)(F)F)cc3)no2)cn1Cc1cccc(N2CCNCC2)c1 [Example 59]
2. CS(=O)(=O)CCCOc1cccc(Cn2cc(-c3noc(-c4ccc(OC(F)F)cc4)n3)ccc2=O)c1 [Example 207]

1: > 7.00; 2: > 7.00

* * *

Test system: 293T-HRE-GFP-luc cells
Experiment: Cell-based reporter assay for IC50 determinations (HRE-luciferase, hypoxia)
Details: 6 h, 6 hrs hypoxia (1% O2), luminescence
pIC50: −log10 of the molar value.
measurement kind: pIC50

Examples with their reported pIC50 follow.
molecule | measurement kind | measurement
CS(=O)(=O)CCCOc1cccc(Cn2cc(-c3nnc(-c4ccc(S(=O)(=O)C(F)(F)F)cc4)o3)ccc2=O)c1 [Example 259] | pIC50 | > 7.00
COCCOc1cccc(Cn2cc(-c3noc(-c4ccc(C(C)(C)COC)cc4)n3)ccc2=O)c1 [Example 72] | pIC50 | > 7.00
COCCOc1cccc(Cn2cc(-c3nnc(-c4ccc(S(=O)(=O)C(F)(F)F)cc4)o3)ccc2=O)c1 [Example 258] | pIC50 | 6.00 to 7.00

Give measured pIC50 for every item shown.
1. Cc1ccc(-c2nc(-c3ccc(OC(F)(F)F)cc3)no2)c(=O)n1Cc1cccc(S(C)(=O)=O)c1 [Example 267]
2. COCCOc1cccc(Cn2cc(-c3noc(-c4ccc(C5=CCSCC5)cc4)n3)ccc2=O)c1 [Example 209]
3. O=c1ccc(-c2nc(-c3ccc(OC(F)(F)F)cc3)no2)cn1Cc1cccc(OCCO)c1 [Example 147]
4. COCCOc1cccc(Cn2cc(-c3noc(-c4ccc(C)cc4)n3)ccc2=O)c1 [Example 192]
5. O=C1CN(c2cccc(Cn3cc(-c4nc(-c5ccc(OC(F)(F)F)cc5)no4)ccc3=O)c2)CCN1 [Example 167]
6. O=c1ccc(-c2nc(-c3ccc(OC(F)(F)F)cc3)no2)nn1Cc1ccc(F)c(N2CCOCC2)c1 [Example 111]

6.00 to 7.00
> 7.00
> 7.00
> 7.00
> 7.00
> 7.00

# pIC50 lookup, item CC(C)(C(=O)O)c1cccc(Cn2cc(-c3nc(-c4ccc(OC(F)(F)F)cc4)no3)ccc2=O)c1 [Example 36]
6.00 to 7.00

From: patent US20140073634A1
